- measured on: cynomolgus monkey CD3 E&D complex protein (Sino Biological Inc., CT032-00323H) (cynomolgus monkey) (UniProt Q95LI5)
- Sequence (Q95LI5 22-117, chain 1 of 2): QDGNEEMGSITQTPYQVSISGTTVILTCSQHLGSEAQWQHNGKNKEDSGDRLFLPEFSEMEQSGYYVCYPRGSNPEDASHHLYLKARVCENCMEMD
- Sequence (Q95LI8 22-105, chain 2 of 2, further chain): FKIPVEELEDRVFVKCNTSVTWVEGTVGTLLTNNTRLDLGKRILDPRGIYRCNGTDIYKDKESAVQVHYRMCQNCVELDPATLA
- method summary: SPR, antigen on chip
reported endpoint: log10 of Kd (log10 of the value in nM)
Values reflect log10 of reported Kd (nM).

Problem: Give log10 of Kd for the following binder: SGN70-sp34.24HL (bispecific antibody, part only; not given: anti-CD70 Fab arm and Fc, not shown: another chain or arm of the molecule; a dimerising Fc or GST; large carriers; small tags and cut ends) scFv: EVQLVESGGGLVQPGGSLKLSCAASGFTFNTYAMNWVRQASGKGLEWVGRIRSKYNNYATYYADSVKDRFTISRDDSKSTLYLQMNSLKTEDTAVYYCARHGNFGQSYVSWFAYWGQGTTVTVSSGGGGSGGGGSGGGGSGGGGSQAVVTQEPSLTVSPGGTVTLTCRSSTGAVTTSNYANWVQQKPGQAPRGLIGGTNKRAPGVPARFSGSLLGDKAALTLLGAQPEDEAEYYCALWYSNLWVFGQGTKLTVL
Solution: 2.25

Problem: Determine its reported log10 of Kd: SGN70-sp34.99LH (bispecific antibody, part only; not given: anti-CD70 Fab arm and Fc, not shown: another chain or arm of the molecule; a dimerising Fc or GST) scFv: QAVVTQEPSLTVSPGGTVTLTCRSSTGAVTTSNYANWVQQKPGQAPRGLIGGTNKRAPGVPARFSGSLLGDKAALTLLGAQPEDEAEYYCALWYSNLWVFGQGTKLTVLGGGGSGGGGSGGGGSGGGGSEVQLVESGGGLVQPGGSLKLSCAASGFTFNTYAMNWVRQASGKGLEWVGRIRSKYNNYATYYADSVKDRFTISRDDSKSTLYLQMNSLKTEDTAVYYCARHGNAYQSYVSWFAYWGQGTTVTVSS
Solution: 4.16

Problem: Report log10 of Kd, nothing else, for this binder: SGN70-sp34.97LH (bispecific antibody, part only; not given: anti-CD70 Fab arm and Fc, not shown: another chain or arm of the molecule; a dimerising Fc or GST) scFv: QAVVTQEPSLTVSPGGTVTLTCRSSTGAVTTSNYANWVQQKPGQAPRGLIGGTNKRAPGVPARFSGSLLGDKAALTLLGAQPEDEAEYYCALWYSNLWVFGQGTKLTVLGGGGSGGGGSGGGGSGGGGSEVQLVESGGGLVQPGGSLKLSCAASGFTFNTYAMNWVRQASGKGLEWVGRIRSKAGGYATYYADSVKDRFTISRDDSKSTLYLQMNSLKTEDTAVYYCARHGNFGQSYVSWFAYWGQGTTVTVSS
Solution: 3.72

Problem: Quickly give me recorded log10 of Kd for SGN70-sp34.87LH (bispecific antibody, part only; not given: anti-CD70 Fab arm and Fc, not shown: another chain or arm of the molecule; a dimerising Fc or GST) scFv: QAVVTQEPSLTVSPGGTVTLTCRSSTGAVTTSNYANWVQQKPGQAPRGLIGGTNKRAPGVPARFSGSLLGDKAALTLLGAQPEDEAEYYCALWYSNLWVFGQGTKLTVLGGGGSGGGGSGGGGSGGGGSEVQLVESGGGLVQPGGSLKLSCAASGFTFNTYAMNWVRQASGKGLEWVGRIRSKYNNYATYYADSVKDRFTISRDDSKSTLYLQMNSLKTEDTAVYYCARHYNFGQSYVSWFAYWGQGTTVTVSS
Solution: 2.74

Problem: Give the reported value of log10 of Kd for this record: SGN70-sp34.87HL (bispecific antibody, part only; not given: anti-CD70 Fab arm and Fc, not shown: another chain or arm of the molecule; a dimerising Fc or GST) scFv: EVQLVESGGGLVQPGGSLKLSCAASGFTFNTYAMNWVRQASGKGLEWVGRIRSKYNNYATYYADSVKDRFTISRDDSKSTLYLQMNSLKTEDTAVYYCARHYNFGQSYVSWFAYWGQGTTVTVSSGGGGSGGGGSGGGGSGGGGSQAVVTQEPSLTVSPGGTVTLTCRSSTGAVTTSNYANWVQQKPGQAPRGLIGGTNKRAPGVPARFSGSLLGDKAALTLLGAQPEDEAEYYCALWYSNLWVFGQGTKLTVL
Solution: 2.80
